STUDY TARGET: DNMT1 (Homo sapiens)
Sequence (P26358 whole entry): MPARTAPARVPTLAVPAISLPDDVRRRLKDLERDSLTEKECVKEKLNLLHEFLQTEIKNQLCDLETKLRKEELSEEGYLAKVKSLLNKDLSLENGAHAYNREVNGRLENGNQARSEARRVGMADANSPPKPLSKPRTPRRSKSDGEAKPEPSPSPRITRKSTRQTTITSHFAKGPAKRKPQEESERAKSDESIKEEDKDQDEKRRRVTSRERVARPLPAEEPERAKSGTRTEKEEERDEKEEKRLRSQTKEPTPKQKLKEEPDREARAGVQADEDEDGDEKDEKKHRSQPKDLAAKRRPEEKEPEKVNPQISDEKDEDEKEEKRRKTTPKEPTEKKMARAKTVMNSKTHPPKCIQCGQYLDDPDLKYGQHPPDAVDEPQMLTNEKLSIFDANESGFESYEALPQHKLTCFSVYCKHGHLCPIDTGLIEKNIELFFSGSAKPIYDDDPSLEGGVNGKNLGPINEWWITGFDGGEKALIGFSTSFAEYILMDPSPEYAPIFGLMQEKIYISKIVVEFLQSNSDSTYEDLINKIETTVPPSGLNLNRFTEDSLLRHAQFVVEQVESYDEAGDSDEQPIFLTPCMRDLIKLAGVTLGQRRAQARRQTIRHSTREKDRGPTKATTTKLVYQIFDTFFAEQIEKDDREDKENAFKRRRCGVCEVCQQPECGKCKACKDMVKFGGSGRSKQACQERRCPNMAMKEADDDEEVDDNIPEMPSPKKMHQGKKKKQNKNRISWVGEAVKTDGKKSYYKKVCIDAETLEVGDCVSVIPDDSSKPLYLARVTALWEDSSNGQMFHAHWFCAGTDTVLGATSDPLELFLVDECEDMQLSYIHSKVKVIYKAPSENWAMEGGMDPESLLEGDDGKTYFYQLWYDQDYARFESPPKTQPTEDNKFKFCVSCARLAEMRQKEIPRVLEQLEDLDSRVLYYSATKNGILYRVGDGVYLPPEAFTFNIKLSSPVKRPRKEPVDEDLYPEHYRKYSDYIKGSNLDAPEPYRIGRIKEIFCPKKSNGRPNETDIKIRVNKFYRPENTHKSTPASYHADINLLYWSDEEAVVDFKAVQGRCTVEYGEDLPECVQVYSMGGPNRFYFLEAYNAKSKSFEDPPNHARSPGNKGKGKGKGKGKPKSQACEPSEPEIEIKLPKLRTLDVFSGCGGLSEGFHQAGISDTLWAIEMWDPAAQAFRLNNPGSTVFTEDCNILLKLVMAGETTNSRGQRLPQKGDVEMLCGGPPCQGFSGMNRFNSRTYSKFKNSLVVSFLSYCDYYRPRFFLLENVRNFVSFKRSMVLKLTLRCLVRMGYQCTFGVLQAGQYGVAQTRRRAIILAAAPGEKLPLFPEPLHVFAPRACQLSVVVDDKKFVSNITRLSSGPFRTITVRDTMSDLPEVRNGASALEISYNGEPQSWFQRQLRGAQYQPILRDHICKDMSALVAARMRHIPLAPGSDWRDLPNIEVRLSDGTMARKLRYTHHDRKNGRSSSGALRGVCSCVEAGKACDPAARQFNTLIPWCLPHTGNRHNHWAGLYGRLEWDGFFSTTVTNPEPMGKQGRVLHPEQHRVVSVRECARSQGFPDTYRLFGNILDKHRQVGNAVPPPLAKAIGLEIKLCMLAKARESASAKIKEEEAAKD
READOUT NAME: IC50 (nM)
Dear colleague, please return just the value in nM, with no unit written.

# input Which measured IC50 belongs to CCc1c(C#N)c(SCc2ccc(N(C)S(C)(=O)=O)cc2)nc(N(C)CCNC)c1C#N , tested on DNMT1 (Homo sapiens)?
# output 110

* * *

STUDY TARGET: kinases (n = 369)
PROTOCOL TEXT: Kinase selectivity panel
CONDITION PARAMETERS: read-out: IC50 values, kinase panel, panel tested at 10 μM
READOUT NAME: IC50

# input I am curious: what IC50 value has been reported for CCc1c(C#N)c(SC(C(N)=O)c2ccccc2)nc(N2CCC(N)CC2)c1C#N (stereo not shown) ?
# output > 10 µM
